# credit: paper PMC9709641

measurement_target: α-glucosidase
assay: PNPG hydrolysis assay, absorbance at […] nm
Format: biochemical
property_name: IC50 (µM)
Give the value, in units of µM, as a plain number.

// IC50 lookup, key: N#CC(O)c1ccc(O)cc1 (stereo not shown) [4-hydroxymandelonitrile]
15.8
